Target: human TRPA1 (Homo sapiens (Human), UniProt O75762)
Sequence (O75762 whole entry): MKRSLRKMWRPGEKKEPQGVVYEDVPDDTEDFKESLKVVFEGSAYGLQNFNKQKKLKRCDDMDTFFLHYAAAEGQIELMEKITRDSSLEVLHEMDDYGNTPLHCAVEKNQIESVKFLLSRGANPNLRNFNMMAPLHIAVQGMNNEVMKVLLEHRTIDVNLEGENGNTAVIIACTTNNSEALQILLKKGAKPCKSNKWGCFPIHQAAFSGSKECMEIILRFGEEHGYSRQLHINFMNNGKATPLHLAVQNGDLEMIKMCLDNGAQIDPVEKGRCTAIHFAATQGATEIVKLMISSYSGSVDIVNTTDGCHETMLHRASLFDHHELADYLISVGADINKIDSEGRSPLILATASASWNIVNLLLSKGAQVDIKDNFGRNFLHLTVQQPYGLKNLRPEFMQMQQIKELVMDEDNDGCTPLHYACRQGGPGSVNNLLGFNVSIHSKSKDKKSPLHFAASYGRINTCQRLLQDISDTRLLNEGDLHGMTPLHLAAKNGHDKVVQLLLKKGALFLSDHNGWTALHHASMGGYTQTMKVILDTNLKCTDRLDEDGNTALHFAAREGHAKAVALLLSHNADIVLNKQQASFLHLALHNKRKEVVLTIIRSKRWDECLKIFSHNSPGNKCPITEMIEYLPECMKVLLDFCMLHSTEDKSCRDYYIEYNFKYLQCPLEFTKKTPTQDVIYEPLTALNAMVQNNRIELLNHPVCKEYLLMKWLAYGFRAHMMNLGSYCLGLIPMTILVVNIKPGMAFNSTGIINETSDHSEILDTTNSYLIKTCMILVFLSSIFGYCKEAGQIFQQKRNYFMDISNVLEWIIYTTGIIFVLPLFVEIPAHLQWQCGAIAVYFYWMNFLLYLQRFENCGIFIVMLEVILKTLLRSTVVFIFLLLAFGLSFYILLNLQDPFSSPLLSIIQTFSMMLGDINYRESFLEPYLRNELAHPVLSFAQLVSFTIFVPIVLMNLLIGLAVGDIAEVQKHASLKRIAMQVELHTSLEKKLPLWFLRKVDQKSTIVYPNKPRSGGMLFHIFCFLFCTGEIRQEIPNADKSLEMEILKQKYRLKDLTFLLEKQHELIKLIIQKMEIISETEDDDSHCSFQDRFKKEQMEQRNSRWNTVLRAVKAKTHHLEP
Test: Measurement of TRPA1 antagonist activity (1): intracellular calcium increase
Type: cell-based
Conditions: 293T cells transfected with human TRPA1 expression plasmid; allylisothiocyanate 20 μM stimulation; intracellular calcium fluorescence; read-out: hTRPA1 IC50
Observable: IC50 (nM)

- Compound: "O=C(NCc1cccc(OCc2ccc(C(F)(F)F)cn2)c1)[C@@H]1CCCN1S(=O)(=O)c1cc2ccccc2o1 [Example 291]"
  IC50 / nM: 28

[a] O=C(NCc1ccc(Oc2cccc(C(F)(F)F)c2)cc1)[C@@H]1CCCN1S(=O)(=O)c1cc2cnccc2o1 [Example 268]
[b] N#Cc1ccc(-c2cccc(CNC(=O)[C@@H]3CCCN3S(=O)(=O)c3cc4cc(F)ccc4o3)n2)cc1 [Example 146]
[c] O=C(NCc1cccc(OCc2cccnc2)c1)[C@@H]1CCCN1S(=O)(=O)c1cc2cc(F)ccc2o1 [Example 14]
[d] O=C(NCc1ccnc(-c2ccc(C(F)(F)F)cc2O)c1)[C@@H]1CCCN1S(=O)(=O)c1cc2cnccc2o1 [Example 271]
[e] O=C(NCc1cc(-c2ccc(C(F)(F)F)cn2)ccn1)[C@@H]1C[C@@H]2C[C@@H]2N1S(=O)(=O)c1cc2cc(F)ccc2o1 [Example 259]
Exercise: // smallest IC50 at index 0, largest at the end Please list the labels in the order you were asked to rank them.
Solution: e, d, c, a, b

----------
Target: human TRPA1 (Homo sapiens (Human))
Test: Measurement of TRPA1 antagonist activity (2): as (1), different lot of human TRPA1 expression plasmid
Format: cell-based
Settings: 293T cells transfected with human TRPA1, allylisothiocyanate 20 μM stimulation, calcium fluorescence, read-out: hTRPA1 IC50
pIC50: −log10 of the molar value.
Observable: pIC50

Please review the entries below; each comes with its answer.
- Compound: "O=C(CNS(=O)(=O)c1cc2cc(F)ccc2o1)NCc1cc(-c2ccc(OC(F)(F)F)cc2)ncn1 [Example 363]"
  pIC50: 6.04
- Compound: "O=C(NCc1cncc(-c2ccc(C(F)(F)F)cn2)c1)[C@@H]1CCCN1S(=O)(=O)c1cc2ccccc2o1 [Example 87]"
  pIC50: 7.28
- Compound: "CN(CC(=O)NCc1cc(-c2ccc(OC(F)(F)F)cc2)ncn1)S(=O)(=O)c1cc2cc(F)ccc2o1 [Example 362]"
  pIC50: 8.15
- Compound: "C[C@H](NS(=O)(=O)c1cc2cc(F)ccc2o1)C(=O)NCc1cc(-c2ccc(C(F)(F)F)nc2)ncn1 [Example 191]"
  pIC50: 7.46
- Compound: "CC(C)N(CC(=O)NCc1ccc(O)c(-c2ccc(C(F)(F)F)cn2)c1)S(=O)(=O)c1cc2cnccc2o1 [Example 374]"
  pIC50: 7.82
- Compound: "O=C(NCc1cc(-c2ccc(C(F)F)cc2)ccn1)[C@@H]1CCCN1S(=O)(=O)c1cc2ccccc2o1 [Example 333]"
  pIC50: 7.68

[1] C[C@H](NS(=O)(=O)c1cc2cnccc2o1)C(=O)NCc1cccc(-c2ccc(C(F)(F)F)cn2)c1 [Example 367]
[2] C=CCN([C@@H](C)C(=O)NCc1cc(-c2ccc(C(F)(F)F)cn2)ccn1)S(=O)(=O)c1cc2cc(F)ccc2o1 [Example 417]
[3] O=C(CN(CC1CCNCC1)S(=O)(=O)c1cc2cc(F)ccc2o1)NCc1cc(-c2ccc(C(F)(F)F)cn2)ccn1 [Example 423]
Exercise: Rank entries according to their pIC50, from the largest number down. Please list the labels in the order you were asked to rank them.
Solution: 2, 3, 1

[P] CN(C)c1nc(CNC(=O)[C@@H]2CCN2S(=O)(=O)c2cc3cc(F)ccc3o2)cc(-c2ccc(C(F)(F)F)nc2)n1 [Example 384]
[Q] O=C(NCc1cc(-c2ccc(C(F)(F)F)cn2)ccn1)C(CF)NS(=O)(=O)c1cc2cc(F)ccc2o1 (centres unmarked) [Example 427]
Exercise: Would you mind telling me which has the lower recorded pIC50 between P and Q ? Mark your answer with the label of the selected entry.
Solution: Q
(Q: 6.77, P: 7.89)

[I] O=C(NCc1ccc(O)c(-c2ccc(C(F)(F)F)cn2)c1)[C@@H]1CCN1S(=O)(=O)c1cc2cc(F)ccc2o1 [Example 404]
[II] O=C(NCc1cc(-c2ccc(C(F)(F)F)cn2)ccn1)[C@@H]1CCCN1S(=O)(=O)c1cc2ccncc2o1 [Example 346]
Exercise: Would you mind telling me which has the lower recorded pIC50 between I and II ? Mark your answer with the label of the selected entry.
Solution: II
(II: 6.15, I: 8.01)
